Test system: ATXN2-luc
Test: MSSR pilot screen: ATXN2-luc luciferase assay (Bright-Glo) in H2 cells, single 10 μM dose
Assay type: cell-based, human
Conditions: pilot screen
Where a name gives a salt, the structure may show the parent alone.
observation type: SD from mean (pilot screen) (SD)

[
  {
    "compound": "C[C@@H]1O[C@@H](O[C@H]2C[C@@H](O)[C@]3(CO)[C@H]4[C@H](O)C[C@]5(C)[C@@H](C6=CC(=O)OC6)CC[C@]5(O)[C@@H]4CC[C@]3(O)C2)[C@H](O)[C@H](O)[C@H]1O",
    "assayed system": "ATXN2-luc",
    "observation type": "SD from mean (pilot screen)",
    "value": -3.832
  },
  {
    "compound": "COC(=O)C1=C(C)NC(C)=C(C(=O)OCCN(C)Cc2ccccc2)C1c1cccc([N+](=O)[O-])c1 (centres unmarked)",
    "assayed system": "ATXN2-luc",
    "observation type": "SD from mean (pilot screen)",
    "value": -2.782
  },
  {
    "compound": "CCCCCCCCCOc1ccc2[nH]cc(CCN)c2c1",
    "assayed system": "ATXN2-luc",
    "observation type": "SD from mean (pilot screen)",
    "value": -3.607
  },
  {
    "compound": "C[C@]12CC[C@H]3[C@@H](CC[C@]4(O)C[C@@H](O)CC[C@]34C=O)[C@@]1(O)CC[C@@H]2C1=CC(=O)OC1",
    "assayed system": "ATXN2-luc",
    "observation type": "SD from mean (pilot screen)",
    "value": -4.451
  },
  {
    "compound": "CC(=O)Oc1cccc(O)c1 [RESORCINOL MONOACETATE]",
    "assayed system": "ATXN2-luc",
    "observation type": "SD from mean (pilot screen)",
    "value": -6.242
  },
  {
    "compound": "CC(N/C(=N\\C#N)Nc1ccncc1)C(C)(C)C (centres unmarked)",
    "assayed system": "ATXN2-luc",
    "observation type": "SD from mean (pilot screen)",
    "value": -4.875
  },
  {
    "compound": "CN1CCN(CCCN2c3ccccc3Sc3ccc(C(F)(F)F)cc32)CC1 [TRIFLUOPERAZINE HYDROCHLORIDE]",
    "assayed system": "ATXN2-luc",
    "observation type": "SD from mean (pilot screen)",
    "value": -5.856
  },
  {
    "compound": "COc1cccc(C2(O)CCCCC2CN(C)C)c1 (centres unmarked)",
    "assayed system": "ATXN2-luc",
    "observation type": "SD from mean (pilot screen)",
    "value": -3.415
  }
]

* * *

Tested on: ATXN2-luc
Test: MSSR pilot screen: ATXN2-luc luciferase assay (Bright-Glo) in H2 cells, single 10 μM dose
Format: cell-based, human
Conditions: pilot screen
Recorded SD from mean (pilot screen) by entry
observation type: SD from mean (pilot screen) (SD)

[
  {
    "molecule": "CO[C@H]1C[C@H](O[C@H]2CC[C@]3(C)[C@H]4CC[C@]5(C)[C@@H](C6=CC(=O)OC6)CC[C@]5(O)[C@@H]4CC[C@]3(O)C2)O[C@H](C)[C@H]1O [PERIPLOCYMARIN]",
    "assayed system": "ATXN2-luc",
    "observation type": "SD from mean (pilot screen)",
    "unit abbrev": "SD",
    "value": -2.759
  },
  {
    "molecule": "CS(=O)(=O)Nc1ccc(Cc2noc(-c3ccc4[nH]cc(CCN)c4c3)n2)cc1 [L-694 247]",
    "assayed system": "ATXN2-luc",
    "observation type": "SD from mean (pilot screen)",
    "unit abbrev": "SD",
    "value": -3.156
  },
  {
    "molecule": "C/C1=C2/[N-][C@H]([C@H](CC(N)=O)[C@@]2(C)CCC(=O)NC[C@@H](C)OP(=O)([O-])O[C@H]2[C@@H](O)[C@@H](n3cnc4cc(C)c(C)cc43)O[C@@H]2CO)[C@]2(C)N=C(/C(C)=C3N=C(/C=C4N=C1[C@@H](CCC(N)=O)C\\4(C)C)[C@@H](CCC(N)=O)[C@]\\3(C)CC(N)=O)[C@@H](CCC(N)=O)[C@]2(C)CC(N)=O.[Co] [COBALAMINE]",
    "assayed system": "ATXN2-luc",
    "observation type": "SD from mean (pilot screen)",
    "unit abbrev": "SD",
    "value": -5.111
  },
  {
    "molecule": "C[C@]12CC[C@H](O)C[C@H]1CC[C@@H]1[C@@H]2CC[C@]2(C)[C@@H](C3=CC(=O)OC3)CC[C@]12O [Digitoxigenin]",
    "assayed system": "ATXN2-luc",
    "observation type": "SD from mean (pilot screen)",
    "unit abbrev": "SD",
    "value": -3.629
  },
  {
    "molecule": "CC(C)c1cc(/C=C(\\C#N)C(=O)NCCCc2ccccc2)cc(C(C)C)c1O [SU1498]",
    "assayed system": "ATXN2-luc",
    "observation type": "SD from mean (pilot screen)",
    "unit abbrev": "SD",
    "value": -4.885
  },
  {
    "molecule": "C[C@H]1O[C@@H](O[C@H]2CC[C@]3(C=O)[C@H]4CC[C@]5(C)[C@@H](C6=CC(=O)OC6)CC[C@]5(O)[C@@H]4CC[C@]3(O)C2)C[C@H](O)[C@@H]1O [Helveticoside]",
    "assayed system": "ATXN2-luc",
    "observation type": "SD from mean (pilot screen)",
    "unit abbrev": "SD",
    "value": -2.733
  }
]
